Values were extracted from the supplement of paper PMC10567573.

B1: C22orf15 (parent)
chain: RGRHEQSPTSRPRKVSSLPPRSC

Variants of: B1
measurement-notes: protein stability index of a GFP-peptide fusion (GPS, HEK-293T) (PSI 1-6); higher = more stable;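 also: lentivirally expressed fusions sorted by FACS into six bins by GFP to DsRed ratio, PSI derived from sequencing read proportions per bin multiplied by bin number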
recorded-conditions: c terminus: native
Rule: protein stability index under 3 gives FALSE, otherwise TRUE.

Given the entry "G2I" , answer whether its protein stability index meets or surpasses 3.
FALSE

How about "C23I" ?
FALSE

Now consider "K14Y" .
FALSE

Also "S16Y" , if possible.
TRUE

Now the variant "K14D"
TRUE

Another variant to look at: "R21S"
TRUE

Proceed to "R21W"
TRUE

// repeat for "K14V" and report
TRUE
